# PROCEDURE_TEXT: soluble fraction after stress (log2 fold change); higher = more stays soluble; pooled small domains, quantitative proteomics
# EXPERIMENTAL_CONDITIONS: stress: pH 4
Assign true to entries whose soluble fraction (log2) meets or exceeds -0.1; assign false to the rest.

Is soluble fraction (log2) for HMSSSKVAISQFEELVDQGQVREVVIEGSTATGTTAAGRRFAAEIPPGGMELFLSKLDDAGTTYEYSPP at or above -0.1?
true

How about HMRKKDGEAYVLPRPLKKGDSVLIYDIDKKGTVLQPPEKGGKTALIQAGIIQTRVPVSNLRLLE ?
true

Please do the same for HMERPEVVAYRLAYASAESLRPALGLVASPSDLEIDERTNTLIVRAVPSVQERVAELVASLDI as well.
false

Next sequence: HMFAVPAPEVDDILSEKKVDVLLLGPQVRYLLEQFTEKLKDKNIPIGVIPMVDYGMMNGSKVLALAEELIG
false

Queued: HMVPSTAVIFTELVSMRSEPATKSPVTHQLTKGTAITINEEKDGWYQVTDQTGNSGWIVKWAVKPTYFTNP
true

What do you have for HMAEVIYGAGKTPAQMLGILRTMQAHGQKTVLITRLREEAAEEIGREIPLQYDKTAGVGIVGTLPQPDG ?
true

// repeat for HMPTTTFENLPDAKKKTIIAALLKEFSQSPLSKAQVAPIVKESQIARGAFYKYFVDLTDAYTYLYRQ and report
false

What about this sequence? HMRPKVADIDYFDGKTFTIEDGSKHSITTSEAKKIYFYLVKNGYVDDESHVTDAYRSAATSGTLA
true

Another: HMTVLPTENDAKALVGLNEDEAVKIIEGNGWTYRIGSRDGEQFMLTEDYSTSRLTLGIEKSIVVTATI
false

Please do the same for HMKEVKRDQVIEAARKLFHQFGFKKVSMDEIAKEAGVTKKTIYMYFESKEELLKYFIQEEISN as well.
false

Proceed to HMATPYISMAGIGKSFGPVHALKSVNLTVYPGEIHALLGENGAGKSTLMKVLSGIHEPTKGTITINNIN
true

What about HMDYGTATASAILYLEKIDPENPYLLLAKDTITTNPKMSVNFALKGIIESKKGEKEENLNKALEIMSSL ?
true

How about this sequence: HMNAQLTTQEAADLLNVSRPHLVKLLEDGELPFLRTGKHRRVRLADLLQFKNAREQASVQAMDELSRQAQ
false

Now consider HMGGEHPIPEDWAVNEANYEHGAKFYGYTRAHVDAEAQAFRDQYAANGKKYVDWDAHFRTFMRWQNERRYG and answer again.
false

Please do the same for HMRLPLYLALAQTLRQEIDAKQYKIGAHLPPEDQLVVKYGVSRHTVRQALQELKNEGLITSKAGIGTIVSS as well.
true

Follow-up item: HMQATETFSLIVPMSSAGNRLDVVLSELLPNFSRKKIQDAIKNGDATLNGKAPKIRDKVYGGENITITLIL
true

Try HMLTGISALKPTEAFPDEIFYEIFEIEDNIERTQYIESLRNTARQLKRVTEFNNLYKSFVLDYAQRQKQ next.
false

Another sequence: HMKTRYPNVYQDEKGKFFYQIFIGTDTNGRKKLKKGRRDALGHPFSSAYQASKEAKRVQALYANVS
true

Also, HMAGTGKVNTGVANVRSGPGTNYEISGKIYADTEVSILETSNGWYKIKFGNLTGWMSGTVLDIK please.
true

And what about the sequence HMNTKDRIKQLAAQRKITIAELERKLHIANGTIGKWDKQNPSIEPLKKLADYFGVTTDYLLGRT ?
false

Follow-up item: HMTQEAMRSLRKSLQNLSSRQQVIFMLRHYEGLALKEIAEHLGLETGTVKAHLHRAVTQLRKDLVE
false

Input HMGPSLIRIASNPVAEVFIDGTRVGTTPFEMPADGTLKTVRLTAKDHDDLVVPLRSMKSMEIMLTLRRI
false

HMSEEGTIPDVSGQDEASAQKALENAGFTNIKSEAVYSEEEQGTVIDTNPTAGTKVSKDTEITMQVSKGSE , same question.
true

Param item: HMNTVAKELATQATQAKKRAFLDAYAETGIIKRAAEIAGIERKSHYLWLEKDPEYVEAFKSAGEQ
true

Then HMDSLQDFAYEEIKKRIQNGEYAPGTKLNTQEISDSLGISRSPVLAAINRLIALGLVEATPRKGTTVA ?
true

Continue with HMRTLRENIMDYFKQQTIIQKSSVILLPMSKRQLADYFGVQRPSLFRELKKLKEEGIIEINNRTITIK
true

Entry to check: HMKTTKDSVFEYIQKELMTNEEYKQGINTNVIAQHFGLQRSNISTILNELVKEDRLEKTNTRPVLYFLPQ
true

====

Can you tell me soluble fraction (log2) for the items I'm about to list?
# PROCEDURE_TEXT: soluble fraction after stress (log2 fold change); higher = more stays soluble; pooled small domains, quantitative proteomics
# EXPERIMENTAL_CONDITIONS: stress: pH 4
API note: the answer field is a bare number with no unit suffix.

// lookup soluble fraction (log2) for HMLKLTDRQKVILSILMSDGEKTASWIASQLGVGLRSVQLDLSYLRNNGFIKKASKSTHSAWIVLKK
0.205

Next up: HMGIIVDMSKIKQMLQLSEAGHSNRKIALELGINKETVNNYMQLIRNGRLDIRQLLKMDDPELERRFHA
0.23

Same thing, different sequence: HMNTLLGLSNSFQDNKDLENANSISRRFISYRPRSEAELRIRLLKVFSHEIVLESVAQMYREGLLNDQRF
-1.65

How about this sequence: HMTKSIDFDFREDGVYIKADKDVTIVDIVTKIDLRRIQSVDLTKIKQMLEIGSLDNWIKIAEPQMEK
-1.44

Would you mind doing HMDFSYTVGDIDEPIDSRGNSVIMLRKLAWGSNAEKLEIRRWIIDIDSERANKGVTFLTEEGPHNLVRV as well?
-0.332

Similarly, HMSSFSESFHKALNNLDDKHKSVFSLRHFEGFSMKEIAETLNINEGTVKSRLFYATKTLAGALKEF ?
-1.29

Same for HMKAGAVFNEGDVLYPKIGGLKLMAAAGEGGKVVATLAKTDEMIYMGEEQSGFVKVESGSGSGWVKKILVA
0.202

Would you mind doing HMDDPWHNLANAIVAVAADDYRSALRNEDEGLLKSLELFFHSEWYRILTDVDADRLLGMLRRERS as well?
-1.14

Lookup HMKMLEINDNDSVGLKNLKTQYNHNQKVIENFQLEINKVINDGELPDKYLLDGMEKYQKLNMQIMSTIEKQ
0.221

Same again, this time with HMTLGEHILQYRTARGWSQEDLANALEVSRQSVSKWETDASTPELDKIVRLSEIFQVSIDELVTGKA
0.0683

Next: HMDFYVILGVDRAASLSDVKRAYRRLARKHHPDINPGDPESDAFFMRVTEAYETLVDPDRRQEYDEHG
-1.34

And HMTLVSALDQKTKDSAYYRGTYLAGKISAGKMTKQEAVADIMKNYDGNTAAMKVAAEKAGVSDLLSQTVL ?
0.0773

// repeat for HMRSIMAVSNYRHKKILEMVYQRKSVSADELAAEFGVSKITIRRDLDTLAMDKLLERTRGGAISISD and report
-0.128

Can you check HMDVADITGTRKAAILLLTMDEELSKELLKEFERHEIEAIGKEIANIKYIPENIVKQVHSEFLKNINKS next?
-0.752

Now try HMQRIFIDNHDRILYYSNPAGYIAGKEAVVDTMFQTQELERFLQKQSLSIRWEDGVYDRLLLGQ .
-0.725

For HMSKPLEVFKLTSEPFGFSFNTALGRSYTVEATGDLGVWKAVELFQGSGGEIRFTAKPTSSGGAQFFRVFV then?
-0.225

Moving on to the next sequence: HMNKEHINLDSSKFLSLLNKTKISMSNDETRHYLNGIYIHPTVSNKSSYLTGVATDSHRLSSSSIPVD
-0.311

# repeat for HMDDFITLVIHTPAHAQNLRNILESHGMEVRLEDFVSFKSPVAVAQRVKIRPKDLPLALKIIESGE
0.126

Same question, HMVEVPEQLRDLLERSIEDLAELSVRSRNSLQKENIQTLGDLVQRTEEEMLGIENFGKKSLTEIAAFL this time
-0.92

Here is the next sequence: HMSSDLLGVRVRRARARAGLTRRRLSLLSGVSERFLAQLESGQGNISIVLIRRVAAALGAELVELIGS
-0.0528

For HMRIAGIDIPDNKRGEVALTYIFGIGRSSSKKILKSAGIDSDKQIGKWTDDESNLVRKLIRDEYTIEGDL then?
-0.484

====

# PROCEDURE_TEXT: soluble fraction after stress (log2 fold change); higher = more stays soluble; pooled small domains, quantitative proteomics
# EXPERIMENTAL_CONDITIONS: stress: pH 4
Lab note: anything with soluble fraction (log2) at or over -0.1 counts as condition met; the rest go in condition not met.

Could you please find out whether HMKNYYRILGLNIDAEYEEIKAAYRILAQRHHPDKGGAAAEFRLIQEAYDILSNPLTKRNYDADLLATLN has soluble fraction (log2) that meets -0.1 or exceeds it?
condition not met

What about HMEALPSNLRRLRLEAQLTLDRLGALSGVSRAMISKIERGASVPTATMLGKLAAALQVSLSQLL ?
condition not met

HMAKLTPDQQELRAIRIELQMSQPDFADAININVPRLSSYEYGRTAGVPTSIMEAARELKRSMSR , same question.
condition not met

Same again, this time with HMGTRPIQIASFSKEENAKRAVEALAKIGITAQPQKSGSATKAVWGVVANGDADLLAKIKAAGFADAYFL
condition met

Now the sequence HMADEIMYPVQVNGKVRAEIFVAADQSKNKELVLEMAKSEERVQKYLEEGNLIKEIFVPGRIVNLVI
condition not met

Here is the next sequence: HMVTKQKKLVLTIIERSHGHLSAEEIFFRAREEMPNIALGTVYRNLNSLTEEGIVRRITLPGTSDRFDT
condition not met

Request: HMGVSVNVQPAILDWAMQKAQMGNAGSSVIEMIAKWISGEKAPTFNQIEDVSKKISIPFGFFFLKEPPIE
condition not met

Moving on to HMITMADKIDTALSEMAANNEKINVSQVAKRLGISNSAIYKFNPEKIPDIQTAQKRQKHKAEAIAVGTEN
condition met

Same lookup for HMVQDDDPNSVAKFIDQVIESNPEQVEQYRSGKEKVFNFFLGQTMRLSKGKANPDLVSELLKEKLS , please.
condition met

Another sequence to look at: HMSSLKKISIDELSPGMYVHSIVEQKGSVKIKSQGKVLKQAVVDALRKRGVKTLLIDLSKQFNPETGEP
condition met

Would you mind doing HMVSLLDWAYKQVRRMLFSGDLPQGQKIVVAQLANQLSISPTPVKEALNRLAVEGLLEAVPRRGFQVR as well?
condition not met

Similarly, HMRIVQTDYRNFLSQVESGAVRSVQIDETQIRYTALDSGGKEIVYNTGKVDDPGLVNRLYDAGVEFSQVIP ?
condition not met

Request: HMQMEDTDALLQVAKEVVAENQDTVEAYLGGREKAFASLIGAAMKKTRGKANPKVIRQLILDLIQ
condition not met
